# METHOD SUMMARY: duplex formation enthalpy ΔH (Van't Hoff fit of HRM Tm); higher = less exothermic duplex formation
# SETUP CONDITIONS: temperature for dG: 50 °C; NaCl: 500 mM (unadjusted); backbone: PS-PO (listed strand fully phosphorothioate, complement phosphodiester)

>  <POLYMER SEQUENCE>
CCGCTCAGAGTAGAGA

>  <duplex formation enthalpy ΔH [kcal/mol]>
-73.5

$$$$
>  <POLYMER SEQUENCE>
CCCAGGCCTCGGATTTA

>  <duplex formation enthalpy ΔH [kcal/mol]>
-74.2

$$$$
>  <POLYMER SEQUENCE>
TGCCATGTTGAAAACC

>  <duplex formation enthalpy ΔH [kcal/mol]>
-76.1

$$$$
>  <POLYMER SEQUENCE>
CTCAGAGTAGAGCCGA

>  <duplex formation enthalpy ΔH [kcal/mol]>
-70.4

$$$$
>  <POLYMER SEQUENCE>
ACTCGCTCTACCTTAAT

>  <duplex formation enthalpy ΔH [kcal/mol]>
-67

$$$$
>  <POLYMER SEQUENCE>
AATGAGGAGTGAAATGG

>  <duplex formation enthalpy ΔH [kcal/mol]>
-75.7

$$$$
>  <POLYMER SEQUENCE>
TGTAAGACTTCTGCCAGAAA

>  <duplex formation enthalpy ΔH [kcal/mol]>
-87.2

$$$$
>  <POLYMER SEQUENCE>
GATGCCGCAGCGACCTG

>  <duplex formation enthalpy ΔH [kcal/mol]>
-75.7

$$$$

----------
# duplex melting temperature annotations
# METHOD SUMMARY: duplex melting temperature (HRM, EvaGreen); higher = more stable duplex
# SETUP CONDITIONS: duplex concentration 2.5 µM; backbone: PS-PO (listed strand fully phosphorothioate, complement phosphodiester)

>  <POLYMER SEQUENCE>
TCTCGCGGTTCCATTA

>  <duplex melting temperature / °C>
59.3

$$$$
>  <POLYMER SEQUENCE>
CTAAACTGTTATAGCCGG

>  <duplex melting temperature / °C>
58.8

$$$$
>  <POLYMER SEQUENCE>
GAACTGCCACTACCAA

>  <duplex melting temperature / °C>
58.6

$$$$
>  <POLYMER SEQUENCE>
AACGAATGTCAGCAATT

>  <duplex melting temperature / °C>
58.4

$$$$
>  <POLYMER SEQUENCE>
AATGTCGAACAGCAATT

>  <duplex melting temperature / °C>
59.1

$$$$
>  <POLYMER SEQUENCE>
CTCAGAGTAGAGCCGA

>  <duplex melting temperature / °C>
60.7

$$$$
>  <POLYMER SEQUENCE>
CGTGCAGCACTACTTG

>  <duplex melting temperature / °C>
60

$$$$
>  <POLYMER SEQUENCE>
CCGTTGCTGCTAGG

>  <duplex melting temperature / °C>
59.6

$$$$

----------
Measured duplex formation free energy ΔG50 by item
# METHOD SUMMARY: duplex formation free energy ΔG50 (Van't Hoff fit of HRM Tm); higher = less stable duplex
# SETUP CONDITIONS: temperature for dG: 50 °C; NaCl: 500 mM (unadjusted); backbone: PS-PO (listed strand fully phosphorothioate, complement phosphodiester)
READOUT NAME: duplex formation free energy ΔG50

>  <POLYMER SEQUENCE>
TGTCGCACCCTACTA

>  <READOUT NAME>
duplex formation free energy ΔG50

>  <RESULT>
-11 kcal/mol

$$$$
>  <POLYMER SEQUENCE>
GTGAAACAATGCTGTAG

>  <READOUT NAME>
duplex formation free energy ΔG50

>  <RESULT>
-10.6 kcal/mol

$$$$
>  <POLYMER SEQUENCE>
CAAGCCTCGATTTTGT

>  <READOUT NAME>
duplex formation free energy ΔG50

>  <RESULT>
-10.6 kcal/mol

$$$$
>  <POLYMER SEQUENCE>
GTCATTGTGCTTTTGC

>  <READOUT NAME>
duplex formation free energy ΔG50

>  <RESULT>
-9.8 kcal/mol

$$$$
>  <POLYMER SEQUENCE>
CTGTAAGGCGATATGTT

>  <READOUT NAME>
duplex formation free energy ΔG50

>  <RESULT>
-10.8 kcal/mol

$$$$
>  <POLYMER SEQUENCE>
CACAGCGACATGTATGG

>  <READOUT NAME>
duplex formation free energy ΔG50

>  <RESULT>
-12.1 kcal/mol

$$$$
>  <POLYMER SEQUENCE>
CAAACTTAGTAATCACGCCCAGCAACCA

>  <READOUT NAME>
duplex formation free energy ΔG50

>  <RESULT>
-19 kcal/mol

$$$$
>  <POLYMER SEQUENCE>
GAACTGCCACTACCAA

>  <READOUT NAME>
duplex formation free energy ΔG50

>  <RESULT>
-11 kcal/mol

$$$$
>  <POLYMER SEQUENCE>
CGTGCAGCACTACTTG

>  <READOUT NAME>
duplex formation free energy ΔG50

>  <RESULT>
-11.3 kcal/mol

$$$$
>  <POLYMER SEQUENCE>
TACTTCCAACGTAGG

>  <READOUT NAME>
duplex formation free energy ΔG50

>  <RESULT>
-9.63 kcal/mol

$$$$
>  <POLYMER SEQUENCE>
TTGAAAACCCATGTGC

>  <READOUT NAME>
duplex formation free energy ΔG50

>  <RESULT>
-10.6 kcal/mol

$$$$
>  <POLYMER SEQUENCE>
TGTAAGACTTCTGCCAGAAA

>  <READOUT NAME>
duplex formation free energy ΔG50

>  <RESULT>
-12.4 kcal/mol

$$$$
>  <POLYMER SEQUENCE>
AATGAGGAGTGAAATGG

>  <READOUT NAME>
duplex formation free energy ΔG50

>  <RESULT>
-10.8 kcal/mol

$$$$
>  <POLYMER SEQUENCE>
AACGAATGTCAGCAATT

>  <READOUT NAME>
duplex formation free energy ΔG50

>  <RESULT>
-11.1 kcal/mol

$$$$
>  <POLYMER SEQUENCE>
TAGACGCGGCCTCTTTCC

>  <READOUT NAME>
duplex formation free energy ΔG50

>  <RESULT>
-14.9 kcal/mol

$$$$
>  <POLYMER SEQUENCE>
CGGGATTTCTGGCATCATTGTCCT

>  <READOUT NAME>
duplex formation free energy ΔG50

>  <RESULT>
-17.1 kcal/mol

$$$$
>  <POLYMER SEQUENCE>
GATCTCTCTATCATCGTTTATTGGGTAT

>  <READOUT NAME>
duplex formation free energy ΔG50

>  <RESULT>
-14.3 kcal/mol

$$$$
>  <POLYMER SEQUENCE>
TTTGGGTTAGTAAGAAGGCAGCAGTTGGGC

>  <READOUT NAME>
duplex formation free energy ΔG50

>  <RESULT>
-20.7 kcal/mol

$$$$
>  <POLYMER SEQUENCE>
GAGGCAGCCGCGACCTG

>  <READOUT NAME>
duplex formation free energy ΔG50

>  <RESULT>
-14.3 kcal/mol

$$$$
>  <POLYMER SEQUENCE>
GAACCGTTGATGATCTC

>  <READOUT NAME>
duplex formation free energy ΔG50

>  <RESULT>
-10.9 kcal/mol

$$$$
>  <POLYMER SEQUENCE>
CTACCAGCGGCGCCGTT

>  <READOUT NAME>
duplex formation free energy ΔG50

>  <RESULT>
-13.3 kcal/mol

$$$$
>  <POLYMER SEQUENCE>
CGTGTGGATAATTAGCT

>  <READOUT NAME>
duplex formation free energy ΔG50

>  <RESULT>
-10.9 kcal/mol

$$$$
>  <POLYMER SEQUENCE>
AGGAGTGAATGAAATGG

>  <READOUT NAME>
duplex formation free energy ΔG50

>  <RESULT>
-10.8 kcal/mol

$$$$

----------
# METHOD SUMMARY: duplex melting temperature (HRM, EvaGreen); higher = more stable duplex
# SETUP CONDITIONS: duplex concentration 7.5 µM; backbone: PS-PS (both strands fully phosphorothioate)

>  <POLYMER SEQUENCE>
CGGTGCTTTTGGTAGC

>  <UNIT LABEL>
°C

>  <duplex melting temperature>
55.1

$$$$
>  <POLYMER SEQUENCE>
TTGAAAACCCATGTGC

>  <UNIT LABEL>
°C

>  <duplex melting temperature>
50.5

$$$$
>  <POLYMER SEQUENCE>
CCGTTGCTGCTAGG

>  <UNIT LABEL>
°C

>  <duplex melting temperature>
56

$$$$
>  <POLYMER SEQUENCE>
ATAACTTACTCTCGCCT

>  <UNIT LABEL>
°C

>  <duplex melting temperature>
54.3

$$$$
>  <POLYMER SEQUENCE>
CGACATGTATGGCACAG

>  <UNIT LABEL>
°C

>  <duplex melting temperature>
56

$$$$
